molecular target: APE1 (Homo sapiens); construct: made in house; assay: Fluorescence polarization (FP) displacement assay of APE1 binding to AP-DNA probe; conditions: read-out: FP IC50;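 further: TAMRA 5′-labeled duplex DNA with THF abasic site (5 nM) and APE1 (20 nM), Mg2+-free buffer, 15 min at room temperature, inhibition seen as lowered polarization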
Sequence (P27695 whole entry): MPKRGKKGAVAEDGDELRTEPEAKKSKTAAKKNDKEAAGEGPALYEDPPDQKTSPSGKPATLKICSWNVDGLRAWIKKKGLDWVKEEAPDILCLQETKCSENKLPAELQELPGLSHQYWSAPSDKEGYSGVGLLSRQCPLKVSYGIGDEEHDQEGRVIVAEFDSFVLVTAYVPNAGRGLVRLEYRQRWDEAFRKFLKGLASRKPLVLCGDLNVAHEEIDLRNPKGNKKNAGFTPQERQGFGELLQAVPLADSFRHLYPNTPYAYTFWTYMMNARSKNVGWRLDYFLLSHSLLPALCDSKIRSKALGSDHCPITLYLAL
TEST_READOUT: IC50

Completed entries (count: 4):
Value of measured IC50 for the entry O=C(c1cccc(-n2cccc2)c1)N1CCN(S(=O)(=O)c2ccccc2)CC1 [MLS001139594] : > 57 µM

Value of measured IC50 for the entry O=C(C[C@@H]1C/C=C\C[C@H](Cc2ccc(F)cc2)C(=O)OC[C@@H](Cc2c[nH]c3ccccc23)NC1=O)NCCO [MLS002320105] : > 57 µM

Value of measured IC50 for the entry O=C1CC(=O)N(Cc2ccco2)C(=O)N1 [MLS000062734] : > 57 µM

Value of measured IC50 for the entry O=C1C=CC2=C3c4cc(O)c(O)cc4CC3(O)COC2=C1O (centres unmarked) [NCGC00095664] : 15.8 µM

Further cases:
Value of measured IC50 for the entry Cc1cc(/C=C2\C(=O)NC(=O)N(Cc3ccco3)C2=O)c(C)n1-c1ccc(C(=O)O)cc1 [MLS000807042] : > 57 µM
